- procedure-summary: Solubility in ethyl acetate incubated for 10 mins
- Type: physicochemical
measured-quantity: solubility (mg/mL)

[I] COc1cc([C@@H]2Oc3cc([C@H]4Oc5cc(O)cc(O)c5C(=O)[C@@H]4O)ccc3OC2CO)ccc1O (some centres undefined)
[II] COc1cc(C2Oc3cc([C@H]4Oc5cc(O)cc(O)c5C(=O)[C@@H]4O)ccc3OC2CSSCC2Oc3ccc([C@H]4Oc5cc(O)cc(O)c5C(=O)[C@@H]4O)cc3O[C@H]2c2ccc(O)c(OC)c2)ccc1O (single isomer, unassigned)
-- ask Would you mind telling me which has the lower recorded solubility between I and II ? # answer = label of selected item
-- reply I
(I: 15.4 mg/mL, II: 523 mg/mL)

====

Below, each of the compounds is paired with its reported Vd/F value.
- procedure-summary: Apparent volume of distribution during terminal phase in overnight-fasted male Sprague-Dawley rat at 150 mg/kg, po measured up to 12 hrs by HPLC analysis
- Type: ADME, organism-based
- condition-label: in vivo, read-out: Vz/F
Answer in L, number only, no unit symbol.

COc1cc([C@@H]2Oc3cc([C@H]4Oc5cc(O)cc(O)c5C(=O)[C@@H]4O)ccc3OC2CS)ccc1O (some centres not stated): 6.91

Now for the compound whose Vd/F we want.
-- ask Can you share its Vd/F? I mean this compound: COc1cc([C@@H]2Oc3cc([C@H]4Oc5cc(O)cc(O)c5C(=O)[C@@H]4O)ccc3OC2CO)ccc1O (some centres not stated)
-- reply 447

====

Measured Activity by item
- procedure-summary: Antioxidant activity assessed as clearing rate incubated for 30 mins under dark condition by DPPH free radical scavenging assay
- Assay type: functional
# unit: % | format: bare number

COc1cc([C@@H]2Oc3cc([C@H]4Oc5cc(O)cc(O)c5C(=O)[C@@H]4O)ccc3OC2CO)ccc1O (some centres undefined): 47.2
COc1cc(C2Oc3cc([C@H]4Oc5cc(O)cc(O)c5C(=O)[C@@H]4O)ccc3OC2CSSCC2Oc3ccc([C@H]4Oc5cc(O)cc(O)c5C(=O)[C@@H]4O)cc3O[C@H]2c2ccc(O)c(OC)c2)ccc1O (single isomer, unassigned): 53.9
COc1cc([C@@H]2Oc3cc([C@H]4Oc5cc(O)cc(O)c5C(=O)[C@@H]4O)ccc3OC2CS)ccc1O (some centres undefined): 92.9

Please examine the following record next.
-- ask State the recorded Activity for this entry: COc1cc([C@@H]2Oc3cc([C@H]4Oc5cc(O)cc(O)c5C(=O)[C@@H]4O)ccc3OC2CSC(C)=O)ccc1O (some centres undefined)
-- reply 39.3

====

- procedure-summary: Apparent clearance during terminal phase in overnight-fasted male Sprague-Dawley rat at 150 mg/kg, po measured up to 12 hrs by HPLC analysis
- Type: ADME, organism-based
- condition-label: in vivo, read-out: CLz/F (converted)
measured-quantity: CL/F (mL/min)
A number alone suffices; assume mL/min.

-- ask Give the measured CL/F of COc1cc([C@@H]2Oc3cc([C@H]4Oc5cc(O)cc(O)c5C(=O)[C@@H]4O)ccc3OC2CO)ccc1O (some centres not stated) .
-- reply 1250

-- ask Which measured CL/F value corresponds to COc1cc([C@@H]2Oc3cc([C@H]4Oc5cc(O)cc(O)c5C(=O)[C@@H]4O)ccc3OC2CS)ccc1O (some centres not stated) ?
-- reply 51.3
